# Tested on: Moloney-murine leukemia virus
# ASSAY PROTOCOL: Antivirus effect on Moloney-murine leukemia virus in SC-1 cells (method of Rowe et al), Table 1
# Type: cell-based
# EXPERIMENTAL CONDITIONS: Moloney-murine leukemia virus; SC-1 cells; read-out: ED50 (the source's name)
Reported EC50 is given for each of the following compounds.
READOUT LABEL: EC50 (µM)

>>> observed_measurement("O=c1[nH]c(=S)ccn1[C@H]1CC[C@@H](CO)O1")
3.7
>>> observed_measurement("Nc1ccn([C@H]2CC[C@@H](CO)O2)c(=O)n1")
4
